tested on: MDA-MB-468 breast; test: NCI tumour cell line growth inhibition, 48 h; in the data active = GI50 below about 0.43 µM; inactive = the rest
# valid calls are y = active, n = inactive; nothing else

# count of solved cases: 4
COc1cc2c(F)nccc2cc1C(=O)N[C@@H](c1ccc(F)c(Cl)c1)[C@@H]1C[C@@H](O)CN1 | y
COc1cccc(Cn2c(-c3nonc3N)nc3ccccc32)c1 | y
C[C@@H](N)C1CCC(C(=O)Nc2ccncc2)CC1 (stereo not given in full) | n
CCN1C(=O)N(CC)C2C1NN=c1s/c(=C\c3ccccc3F)c(=O)n12 (stereo not given) | y

Q: Name the outcome recorded for O=C1Oc2ccccc2C(=O)/C1=C/N1C(=O)/C(=C/c2ccc3c(c2)OCO3)SC1=S in the assay.
Result: n
